Overview of recorded MIC for various molecules
# Test system: Escherichia coli DC2
# ASSAY_COMMENT: Antibiotic activity in vitro, agar dilution method in DST agar (MIC)
# Assay type: cell-based
Please state the figure in µg/mL; there is no need to write the unit.

Worked cases, answers included:
INSERT INTO measurements (input_smiles, assay_result) VALUES
  ('CCS(=O)(=O)Nc1cc([C@@H](N)C(=O)N[C@@H]2C(=O)N3C(C(=O)O)=C(Cl)CS[C@H]23)ccc1O', 2),
  ('CS(=O)(=O)Nc1cc([C@@H](N)C(=O)N[C@@H]2C(=O)N3C(C(=O)O)=CCS[C@H]23)ccc1O', 4),
  ('CS(=O)(=O)Nc1cc([C@@H](N)C(=O)N[C@@H]2C(=O)N3C(C(=O)O)=C(Cl)CS[C@H]23)ccc1O', 0.5);

Provide one value: measured MIC of CCS(=O)(=O)Nc1cc([C@@H](N)C(=O)N[C@@H]2C(=O)N3C(C(=O)O)=C(OC)CS[C@H]23)ccc1O
2

Provide MIC value for the following molecule: CCS(=O)(=O)Nc1cc([C@@H](N)C(=O)N[C@@H]2C(=O)N3C(C(=O)O)=CCS[C@H]23)ccc1O
4

Give MIC for COC1=C(C(=O)O)N2C(=O)[C@@H](NC(=O)[C@H](N)c3ccc(O)c(NS(C)(=O)=O)c3)[C@H]2SC1
0.5

Ref: patent EP0046734A2
